Activity listing for selected molecules.
# System: Mycobacterium tuberculosis
# assay comment: Antitubercular activity against Mycobacterium tuberculosis H37Rv assessed as reduction in RLU at 100 ug/mL after 72 hrs by luciferase reporter phage assay
# Type: functional
# Set-up: scale not given: the % may be the effect or the level left

[
  {
    "test smiles": "COc1ccc(-c2[nH]c(=O)[nH]c(=O)c2C#N)cc1O",
    "system name": "Mycobacterium tuberculosis",
    "Activity / %": 33.4
  },
  {
    "test smiles": "N#Cc1c(-c2ccc(F)cc2)[nH]c(=O)[nH]c1=O",
    "system name": "Mycobacterium tuberculosis",
    "Activity / %": 46.49
  },
  {
    "test smiles": "N#Cc1c(-c2ccc(Cl)cc2)[nH]c(=S)[nH]c1=O",
    "system name": "Mycobacterium tuberculosis",
    "Activity / %": 46.21
  },
  {
    "test smiles": "N#Cc1c(-c2ccc(Br)cc2)[nH]c(=S)[nH]c1=O",
    "system name": "Mycobacterium tuberculosis",
    "Activity / %": 75.73
  },
  {
    "test smiles": "N#Cc1c(-c2cccc(Cl)c2)[nH]c(=O)[nH]c1=O",
    "system name": "Mycobacterium tuberculosis",
    "Activity / %": 54.28
  }
]
